Values compiled from ChEMBL document CHEMBL5226341.

System: MV4-11
Test: Antiproliferative activity against human MV4-11 cells assessed as inhibition of cell growth incubated for 72 hrs by CellTiterGlo luminescent assay
Format: functional, cell-based
Settings: MV4-11, 72 h
quantity_kind: IC50 (nM)

The following compounds have reported results that may help.
# input_smiles, quantity_kind, result_units, obs_value
measured = [
    ("CCN1CCN(c2ccc(C(=O)Nc3cc(-c4ccc5ncn(Cc6c(Cl)cccc6Cl)c5c4)[nH]n3)cn2)CC1", "IC50", "nM", 3.25),
    ("CN1CCC(Nc2ccc(C(=O)Nc3cc(-c4ccc5ncn(Cc6cccc(Cl)c6)c5c4)[nH]n3)cc2)CC1", "IC50", "nM", 66),
    ("CCN1CCN(c2ccc(C(=O)Nc3cc(-c4ccc5ncn(Cc6c(Cl)cccc6Cl)c5c4)[nH]n3)cc2)CC1", "IC50", "nM", 2.93),
]

[I] CN1CCC(C(=O)Nc2cc(-c3ccc4ncn(Cc5ccccc5)c4c3)[nH]n2)CC1
[II] CN1CCN(c2ccc(C(=O)Nc3cc(-c4ccc5ncn(Cc6c(Cl)cccc6Cl)c5c4)[nH]n3)cc2)CC1=O
[III] CN1CCC(Nc2ccc(C(=O)Nc3cc(-c4ccc5ncn(Cc6ccsc6)c5c4)[nH]n3)cc2)CC1
[IV] O=C(Nc1cc(-c2ccc3ncn(Cc4ccccc4Cl)c3c2)[nH]n1)c1ccc(N2CCNCC2)cc1
[V] Cc1cc(NC2CCN(C)CC2)ccc1C(=O)Nc1cc(-c2ccc3ncn(Cc4ccccc4)c3c2)[nH]n1
Challenge: Please rank these compounds by IC50 in descending order. Response field: labels, in requested order.
Response given: I, V, III, IV, II

====

Tested on: BaF3
Assay: Antiproliferative activity against mouse BaF3 cells harboring FLT3-ITD mutant assessed as reduction in cell viability measured after 72 hrs by CellTiterGlo luminescent assay
Type: functional, cell-based
Settings: BaF3, 72 h
Measured IC50 accompanies every entry in the list below.
Response body: numeric value in nM, unit text excluded.

# input_smiles, result_units, IC50
records = [
    ("CC(C)(C)c1cc(NC(=O)Nc2ccc(-c3cn4c(n3)sc3cc(OCCN5CCOCC5)ccc34)cc2)no1", "nM", 3.52),
]

Challenge: Consider the molecule `CCN1CCN(c2ccc(C(=O)Nc3cc(-c4ccc5ncn(Cc6c(Cl)cccc6Cl)c5c4)[nH]n3)cc2)CC1` . State its measured IC50.
Response given: 7.6

====

Assay: Volume of distribution at steady state in Sprague-Dawley rat at 1 mg/kg, iv measured for 24 hrs by LC-MS/MS analysis
Type: ADME, organism-based
Settings: in vivo, read-out: Vdss
quantity_kind: Vd (L/kg)
Report the value in L/kg with no unit label.

Challenge: Supply reported Vd belonging to this compound: `CCN1CCN(c2ccc(C(=O)Nc3cc(-c4ccc5ncn(Cc6c(Cl)cccc6Cl)c5c4)[nH]n3)cc2)CC1`
Response given: 6.27

====

System: A549
Test: Antiproliferative activity against human A549 cells assessed as reduction in cell viability measured after 72 hrs by CellTiterGlo luminescent assay
Type: functional, cell-based
Conditions: A549, 72 h
quantity_kind: pIC50
In plain terms, pIC50 is the concentration in mol/L turned into minus its base-10 logarithm.

Challenge: Determine its reported pIC50: `CCN1CCN(c2ccc(C(=O)Nc3cc(-c4ccc5ncn(Cc6c(Cl)cccc6Cl)c5c4)[nH]n3)cc2)CC1`
Response given: 5.44
